Data provenance: patent US20240067729A1

- ASSAY TARGET: T1, cynomolgus PD-L1, his tagged (cPD-L1-his) (cynomolgus (Macaca fascicularis), UniProt G7PSE7 19-238)
- T1 construct: also called cyPD-L1-His; Cyno PD-L1
- T1 sequence (G7PSE7 entry or part of it limits assumed, form in doubt): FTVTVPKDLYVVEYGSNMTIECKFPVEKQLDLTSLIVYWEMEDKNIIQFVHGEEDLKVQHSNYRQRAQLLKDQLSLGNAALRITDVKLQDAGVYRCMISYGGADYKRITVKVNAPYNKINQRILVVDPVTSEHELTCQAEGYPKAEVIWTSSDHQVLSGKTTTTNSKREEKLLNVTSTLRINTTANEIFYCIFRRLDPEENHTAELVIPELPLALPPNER
- PROCEDURE DETAILS: BLI (ForteBio Octet), cPD-L1-his
MEASURED ATTRIBUTE: kon (M⁻¹ s⁻¹)
Give the quantity in M⁻¹ s⁻¹, number only.

Answered cases to consult:
[[record]]
binder = "h769-IF3 (humanized 769-hIgG1 variant) (antibody, V domains shown) VH: EVQLVQSGAEVKKPGATVKISCKVSGFNIKDTYMHWVQQAPGKGLEWMGLIDPANDNTIYAEKFQGRVTITADTSTDTAYMELSSLRSEDTAVYYCAREGYGGSYGEGYWGQGTLVTVSS VL: EIVMTQSPPTLSLSPGERVTLSCRASQSVSNDLSWYQQKPGQAPRLLIYYASIRFTGIPARFSGSGSGTDFTLTISSLQPEDFAVYYCQQDYNSPWTFGQGTKVEIK"
measured_attribute = "kon"
meas_value = 208000

[[record]]
binder = "h769-tm3 (humanized 769-hIgG1 variant) (antibody, V domains shown) VH: EVQLVQSGAEVKKPGATVKISCKVSGFNIKDTYMHWVQQAPGKGLEWMGLIDPANDNTIYAEKFQGRVTITADTSTDTAYMELSSLRSEDTAVYYCAREGYGGSYGEGYWGQGTLVTVSS VL: EIVMTQSPPTLSLSPGERVTLSCRASQSVSNDLSWYQQKPGQAPRLLIYYASIRFTGIPARFSGSGSGTDFTLTISSLQPEDFAVYFCQQDYNSPWTFGQGTKVEIK"
measured_attribute = "kon"
meas_value = 211000


Now take the following binder into account.
h769-tm2 (humanized 769-hIgG1 variant) (antibody, V domains shown) VH: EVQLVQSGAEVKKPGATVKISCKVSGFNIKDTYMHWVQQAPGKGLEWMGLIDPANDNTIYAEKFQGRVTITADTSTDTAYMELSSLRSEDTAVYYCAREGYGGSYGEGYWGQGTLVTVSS VL: EIVMTQSPPTLSLSPGERVTLSCRASQSVSNDLSWYQQKPGQAPRLLIYYASIRFTGIPARFSGSGYGTDFTLTISSLQPEDFAVYYCQQDYNSPWTFGQGTKVEIK yielded kon of 204000
